Tested on: IL-12 induced STAT4 phosphorylation mediated by TYK2/JAK2
TEST METHOD NOTES: IL-12 induced pSTAT4 in human PBMC
Format: cell-based
CONDITION: 1 hr compound, 1.7 ng/mL IL-12 for 30 minutes
Readings of IC50 for the listed compounds
TEST READOUT: IC50

* CNc1cc(-c2cn([C@H]3CCOC3)c3ncccc23)nc2c(C(=O)N[C@H]3CC[C@@H]3OC)cnn12 | < 0.1 µM
* CO[C@@H]1CC[C@H]1NC(=O)c1cnn2c3c(c(Nc4cccn(C(C)C)c4=O)nc12)OCCN3 | < 0.1 µM
* CNc1cc(Nc2cccn([C@H]3C[C@H](F)C3)c2=O)nc2c(C(=O)NC3CC[C@@H]3F)cnn12 (some centres unmarked) | < 0.1 µM
* CNc1cc(Nc2cccn(C3COC3)c2=O)nc2c(C(=O)N[C@@H]3CC[C@@H]3F)cnn12 | < 0.1 µM
* CNc1cc(-c2cn([C@H]3CCOC[C@@H]3F)c3ncccc23)nc2c(C(=O)N[C@H]3CC[C@@H]3OC)cnn12 | < 0.1 µM
* CNc1ccc(-c2cc(NC)n3ncc(C(=O)NC4CC[C@H]4O)c3n2)n2ccnc12 (some centres unmarked) | < 0.1 µM
* CNc1cc(Nc2cccn([C@@H]3CCC[C@H](C#N)C3)c2=O)nc2c(C(=O)N[C@@H]3CC[C@H]3OC)cnn12 | < 0.1 µM
* CNc1cc(-c2cnc3n(CC(=O)N4CC5(COC5)C4)cccc2-3)nc2c(C(=O)N[C@H]3CC[C@@H]3OC)cnn12 | > 1 µM
* CNc1cc(Nc2cccn(C3CCOCC3)c2=O)nc2c(C(=O)NC3CC[C@@]3(C)OC)cnn12 (some centres unmarked) | < 0.1 µM
* CNc1cc(-c2cnc3n([C@H]4CCOC[C@@H]4O)cccc2-3)nc2c(C(=O)N[C@@H]3C[C@@H]3F)cnn12 | < 0.1 µM
* CNc1cc(Nc2cccn(C(C)C)c2=O)nc2c(C(=O)N[C@@H]3CC[C@H]3F)cnn12 | < 0.1 µM
* CNc1cc(-c2cnc3n([C@@H]4CCOC[C@H]4O)cccc2-3)nc2c(C(=O)N[C@@H]3C[C@@H]3F)cnn12 | < 0.1 µM
* CNc1cc(Nc2cccn([C@H]3CCC[C@@](C)(O)C3)c2=O)nc2c(C(=O)N[C@@H]3C[C@@H]3F)cnn12 | < 0.1 µM
* CNc1cc(-c2cn([C@H]3CC(=O)N(C)C3)c3ncccc23)nc2c(C(=O)N[C@H]3CC[C@@H]3OC)cnn12 | < 0.1 µM

###

Tested on: IL-12 induced STAT4 phosphorylation mediated by TYK2/JAK2
TEST METHOD NOTES: IL-12 induced pSTAT4 in human PBMC
Format: cell-based
CONDITION: 1 hr compound, 1.7 ng/mL IL-12 for 30 minutes
TEST READOUT: IC50

- CNc1cc(Nc2cccn([C@H]3[C@@H]4COC[C@@H]43)c2=O)nc2c(C(=O)NC3CCC3(F)F)cnn12 (stereo partly shown): < 0.1 µM
- CNc1cc(Nc2cccn([C@@H]3CCC[C@@H]3O)c2=O)nc2c(C(=O)NC3CC[C@@H]3F)cnn12 (stereo partly shown): < 0.1 µM
- CNc1cc(Nc2cccn([C@H]3C[C@@H]3F)c2=O)nc2c(C(=O)NC3CCC3(F)F)cnn12 (stereo partly shown): < 0.1 µM
- CNc1cc(-c2cn(C3CCOCC3)c3ncccc23)nc2c(C(=O)N[C@H]3CCC3(F)F)cnn12: < 0.1 µM

###

System: IL-12 induced STAT4 phosphorylation mediated by TYK2/JAK2
TEST METHOD NOTES: IL-12 induced pSTAT4 in human PBMC
Format: cell-based
CONDITION: 1 hr compound, 1.7 ng/mL IL-12 for 30 minutes
TEST READOUT: IC50

• CNc1cc(-c2cn([C@H]3C[C@@H](O)C3)c3ncccc23)nc2c(C(=O)N[C@H]3CC[C@@H]3OC)cnn12 [Compound I-606] = < 0.1 µM
• CNc1cc(Nc2cccn(C3COC3)c2=O)nc2c(C(=O)N[C@@H]3C[C@@H]3F)cnn12 [Compound I-125] = < 0.1 µM
• CNc1cc(-c2cn([C@@H]3COC[C@@H]3F)c3ncccc23)nc2c(C(=O)NC3CC[C@@H]3OC)cnn12 (some centres unmarked) [Compound I-621] = < 0.1 µM
• CNc1cc(-c2cn([C@H]3COC[C@H]3F)c3ncccc23)nc2c(C(=O)N[C@H]3CC[C@H]3O)cnn12 [Compound I-574] = < 0.1 µM
• CNc1cc(Nc2cccn(C(C)C)c2=O)nc2c(C(=O)NC3CC[C@@H]3F)cnn12 (mixture of isomers) [Compound I-145] = < 0.1 µM
• CNc1cc(Nc2cccn([C@H]3C[C@H](OC)C3)c2=O)nc2c(C(=O)NC3CCC3)cnn12 [Compound I-141] = < 0.1 µM
• CNc1cc(-c2cn([C@H]3CO[C@@H](COC)C3)c3ncccc23)nc2c(C(=O)N[C@H]3CC[C@@H]3OC)cnn12 [I-1018] = < 0.1 µM
• CNc1cc(Nc2cccn([C@H]3CCC[C@@H](C#N)C3)c2=O)nc2c(C(=O)N[C@@H]3CC[C@H]3OC)cnn12 [Compound I-258] = < 0.1 µM
• CNc1cc(Nc2cccn([C@@H]3CCOC[C@@H]3OC)c2=O)nc2c(C(=O)N[C@@H]3CCC3(F)F)cnn12 [Compound I-338] = < 0.1 µM
• CNc1cc(-c2cnc3n([C@H]4COC[C@@H]4O)cccc2-3)nc2c(C(=O)NC3CCC3(F)F)cnn12 (some centres unmarked) [Compound I-898] = < 0.1 µM
• CNc1cc(Nc2cccn([C@@H]3CCCOC3)c2=O)nc2c(C(=O)N[C@@H]3CC[C@H]3F)cnn12 [Compound I-196] = < 0.1 µM
• CNc1cc(Nc2cccn([C@H]3[C@@H]4COC[C@@H]43)c2=O)nc2c(C(=O)N[C@@H]3CC[C@H]3F)cnn12 [Compound I-208] = < 0.1 µM
• CNc1cc(-c2cn([C@H]3COC[C@@H]3OC)c3ncccc23)nc2c(C(=O)N[C@H]3CC[C@@H]3OC)cnn12 [Compound I-634] = < 0.1 µM
• CNc1cc(Nc2cccn(C3CCOCC3)c2=O)nc2c(C(=O)NC3CC[C@H]3F)cnn12 (some centres unmarked) [Compound I-191] = < 0.1 µM

###

System: IL-12 induced STAT4 phosphorylation mediated by TYK2/JAK2
TEST METHOD NOTES: IL-12 induced pSTAT4 in human PBMC
Assay type: cell-based
CONDITION: 1 hr compound, 1.7 ng/mL IL-12 for 30 minutes
TEST READOUT: IC50

* CNc1cc(Nc2cccn([C@H]3CC[C@@H]3O)c2=O)nc2c(C(=O)N[C@@H]3CC[C@@]3(C)OC)cnn12 | < 0.1 µM
* O=C(N[C@@H]1CCC1(F)F)c1cnn2c3c(c(-c4cn(C5COC5)c5ncccc45)nc12)OCCN3 | < 0.1 µM
* CNc1cc(Nc2cccn(-c3ncccc3F)c2=O)nc2c(C(=O)NC3CC[C@@]3(C)OC)cnn12 (some centres unmarked) | < 0.1 µM
* CNc1cc(Nc2cccn([C@H]3C[C@H](F)C3)c2=O)nc2c(C(=O)N[C@H]3CC[C@@H]3F)cnn12 | < 0.1 µM
* CNc1cc(-c2cn(C3CCCC3)c3ncccc23)nc2c(C(=O)NC3CCC3(F)F)cnn12 (centres unmarked) | < 0.1 µM
* CNc1cc(-c2cn([C@H]3CCN(C)C3)c3ncccc23)nc2c(C(=O)N[C@H]3CC[C@@H]3OC)cnn12 | < 0.1 µM
* CNc1cc(Nc2cccn(C3COC3)c2=O)nc2c(C(=O)NC3CCC3(F)F)cnn12 (centres unmarked) | < 0.1 µM
* CO[C@@H]1CCC1NC(=O)c1cnn2c3c(c(Nc4cccn([C@H]5[C@@H]6COC[C@@H]65)c4=O)nc12)OCCN3 (some centres unmarked) | < 0.1 µM
* CNc1cc(-c2cn([C@H]3CCOC[C@H]3OC)c3ncccc23)nc2c(C(=O)N[C@@H]3CCC3(F)F)cnn12 | < 0.1 µM
* CNc1cc(-c2cn([C@H]3COC[C@@H]3O)c3ncccc23)nc2c(C(=O)NC3CCC3(F)F)cnn12 (some centres unmarked) | < 0.1 µM
* CNc1cc(-c2cn([C@@H]3CN(C)C[C@H]3OC)c3ncccc23)nc2c(C(=O)N[C@H]3CC[C@@H]3OC)cnn12 | < 0.1 µM
* CNc1cc(-c2cnc3n(CC(=O)N4CCC4)cccc2-3)nc2c(C(=O)N[C@H]3CC[C@@H]3OC)cnn12 | > 1 µM
* CNc1cc(Nc2cccn([C@H]3CC[C@H](OC)CC3)c2=O)nc2c(C(=O)NC3CC[C@@H]3F)cnn12 (some centres unmarked) | < 0.1 µM
* CNc1cc(Nc2cccn([C@H]3CCCC[C@H]3O)c2=O)nc2c(C(=O)N[C@H]3CC[C@]3(C)OC)cnn12 | < 0.1 µM
